Please note: melting point exactly at 70 °C is n. Only values below 70 °C get y.

compound-smiles | assigned-category
CN(Cc1ccc(C2=NCCN2)cc1)C(=O)CCN(C1CC1)S(=O)(=O)c1c(Cl)cccc1Cl.O=C(O)C(F)(F)F | y
CN(Cc1ccc(C2=NCCN2)cc1)C(=O)COCCN(C)S(=O)(=O)c1ccccc1C(F)(F)F.O=C(O)C(F)(F)F | y
CN(Cc1ccc(C2=NCCN2)cc1)C(=O)COCCN(C)S(=O)(=O)c1cccc2ccccc12.O=C(O)C(F)(F)F | y
CN(Cc1ccc(C2=NCCN2)cc1)C(=O)/C=C/CN(C)S(=O)(=O)c1ccccc1C(F)(F)F.O=C(O)C(F)(F)F | y
CN(Cc1ccc(C2=NCCN2)cc1)C(=O)CCN(C1CC1)S(=O)(=O)c1cccc(Cl)c1Cl.O=C(O)C(F)(F)F | n

---

Documented melting point across a set of compounds

compound-smiles | display-unit | melting point
CC(C)N(CCC(=O)N(C)Cc1ccc(C2=NCCN2)cc1)S(=O)(=O)c1cccc(Cl)c1Cl.O=C(O)C(F)(F)F | °C | 92
CN(Cc1ccc(C2=NCCN2)cc1)C(=O)CCN(CC(F)(F)F)S(=O)(=O)c1cccc(Cl)c1Cl.O=C(O)C(F)(F)F | °C | 88
CN(Cc1ccc(C2=NCCN2)cc1)C(=O)COCCN(C)S(=O)(=O)c1c(Cl)cc(C(F)(F)F)cc1Cl.O=C(O)C(F)(F)F | °C | 60
CN(Cc1ccc(C2=NCCN2)cc1)C(=O)CCCCN(C1CC1)S(=O)(=O)c1ccccc1Cl.O=C(O)C(F)(F)F | °C | 55
CC(C)N(CCC(=O)N(C)Cc1ccc(C2=NCCN2)cc1)S(=O)(=O)c1c(Cl)cccc1Cl.O=C(O)C(F)(F)F | °C | 75
CN(Cc1ccc(C2=NCCN2)cc1)C(=O)COCCN(C1CC1)S(=O)(=O)c1c(Cl)cccc1Cl.O=C(O)C(F)(F)F | °C | 60
CN(Cc1ccc(C2=NCCN2)cc1)C(=O)COCCN(C)S(=O)(=O)c1cccc(C(F)(F)F)c1.O=C(O)C(F)(F)F | °C | 60
Cc1c(Cl)ccc(S(=O)(=O)N(CCCCC(=O)N(C)Cc2ccc(C3=NCCN3)cc2)CCC(N)=O)c1Cl.O=C(O)C(F)(F)F | °C | 85
Cc1c(Cl)ccc(S(=O)(=O)NC/C=C/C(=O)N(C)Cc2ccc(C3=NCCN3)cc2)c1Cl.O=C(O)C(F)(F)F | °C | 99
Cc1c(Cl)ccc(S(=O)(=O)N(CCCCC(=O)N(C)Cc2ccc(C3=NCCN3)cc2)CC(N)=O)c1Cl.O=C(O)C(F)(F)F | °C | 90

---

compound-smiles | display-unit | melting point
CN(Cc1ccc(C2=NCCN2)cc1)C(=O)/C=C/CN(C)S(=O)(=O)c1ccc(OC(F)(F)F)cc1Cl.O=C(O)C(F)(F)F | °C | 68
CN(Cc1ccc(C2=NCCN2)cc1)C(=O)COCCN(C1CC1)S(=O)(=O)c1ccccc1Cl.O=C(O)C(F)(F)F | °C | 52
CN(Cc1ccc(C2=NCCN2)cc1)C(=O)CCN(CC(F)(F)F)S(=O)(=O)c1c(Cl)cccc1Cl.O=C(O)C(F)(F)F | °C | 80
Cc1c(Cl)ccc(S(=O)(=O)N(CCOCC(=O)N(C)Cc2ccc(C3=NCCN3)cc2)CCc2ccccc2)c1Cl.O=C(O)C(F)(F)F | °C | 85
CN(Cc1ccc(C2=NCCN2)cc1)C(=O)/C=C/CN(C)S(=O)(=O)c1cccc2ccccc12.O=C(O)C(F)(F)F | °C | 77
CC(C)N(CCCCC(=O)N(C)Cc1ccc(C2=NCCN2)cc1)S(=O)(=O)c1c(Cl)cccc1Cl.O=C(O)C(F)(F)F | °C | 60
CN(Cc1ccc(C2=NCCN2)cc1)C(=O)COCCN(C1CC1)S(=O)(=O)c1cccc(Cl)c1Cl.O=C(O)C(F)(F)F | °C | 65
